This collection of values is drawn from the supplement of paper PMC9112550.

system: Escherichia coli TOP10; assay: shrunken log2 fold change of peptide-encoding DNA abundance (4.5 h post-induction vs induction); higher = less antimicrobial activity (less host growth inhibition); settings: time post-induction: 4.5 h; library: site-saturation at positions 5, 18, 19, 20
READOUT NAME: shrunken log2 fold change

Use the examples below as a reference point.
[[record]]
polymer_sequence = "RRIRKRPPRLPRPRPRPNCSPRP"
system = "Escherichia coli TOP10"
reading = 0.149

[[record]]
polymer_sequence = "RRIRVRPPRLPRPRPRPGMYPRP"
system = "Escherichia coli TOP10"
reading = -0.241

[[record]]
polymer_sequence = "RRIRSRPPRLPRPRPRPFEAPRP"
system = "Escherichia coli TOP10"
reading = 0.14

[[record]]
polymer_sequence = "RRIRFRPPRLPRPRPRPDKWPRP"
system = "Escherichia coli TOP10"
reading = 0.0538

[[record]]
polymer_sequence = "RRIRRRPPRLPRPRPRPLKFPRP"
system = "Escherichia coli TOP10"
reading = -0.149


Quick one: shrunken log2 fold change for `RRIRRRPPRLPRPRPRPSDPPRP` ? -0.00173

Quick one: shrunken log2 fold change for `RRIRERPPRLPRPRPRPKKTPRP` ? -0.0747

Quick one: shrunken log2 fold change for `RRIRNRPPRLPRPRPRPDGTPRP` ? -0.128

Quick one: shrunken log2 fold change for `RRIRMRPPRLPRPRPRPPTVPRP` ? 0.593

Quick one: shrunken log2 fold change for `RRIRIRPPRLPRPRPRPFGFPRP` ? -0.694

---

tested on: Escherichia coli TOP10; test: shrunken log2 fold change of peptide-encoding DNA abundance (4.5 h post-induction vs induction); higher = less antimicrobial activity (less host growth inhibition); details: time post-induction: 4.5 h; library: site-saturation at positions 5, 18, 19, 20
READOUT NAME: shrunken log2 fold change

Use the examples below as a reference point.
[[record]]
polymer_sequence = "RRIRHRPPRLPRPRPRPRIEPRP"
readout_name = "shrunken log2 fold change"
reading = 0.15

[[record]]
polymer_sequence = "RRIRWRPPRLPRPRPRPNVIPRP"
readout_name = "shrunken log2 fold change"
reading = -0.161

[[record]]
polymer_sequence = "RRIRHRPPRLPRPRPRPEVHPRP"
readout_name = "shrunken log2 fold change"
reading = 0.16


Could you share what shrunken log2 fold change was measured for `RRIRHRPPRLPRPRPRPPYYPRP` , tested on Escherichia coli TOP10? -0.296

Could you share what shrunken log2 fold change was measured for `RRIRDRPPRLPRPRPRPWGEPRP` , tested on Escherichia coli TOP10? 0.0987

Could you share what shrunken log2 fold change was measured for `RRIRYRPPRLPRPRPRPEKVPRP` , tested on Escherichia coli TOP10? -0.241

Could you share what shrunken log2 fold change was measured for `RRIRCRPPRLPRPRPRPESNPRP` , tested on Escherichia coli TOP10? 0.00481

Could you share what shrunken log2 fold change was measured for `RRIRMRPPRLPRPRPRPAMQPRP` , tested on Escherichia coli TOP10? 0.404

Could you share what shrunken log2 fold change was measured for `RRIRDRPPRLPRPRPRPIMHPRP` , tested on Escherichia coli TOP10? -0.0198

---

system: Escherichia coli TOP10; assay: shrunken log2 fold change of peptide-encoding DNA abundance (4.5 h post-induction vs induction); higher = less antimicrobial activity (less host growth inhibition); conditions: time post-induction: 4.5 h; library: site-saturation at positions 5, 18, 19, 20
Label scheme, based on shrunken log2 fold change: bucket A: < -0.06; bucket B: ≥ -0.06 and < 0.04; bucket C: ≥ 0.04

Reference set (10 entries):
[[record]]
polymer_sequence = "RRIRMRPPRLPRPRPRPLIEPRP"
category = "bucket C"

[[record]]
polymer_sequence = "RRIRCRPPRLPRPRPRPNRNPRP"
category = "bucket A"

[[record]]
polymer_sequence = "RRIRKRPPRLPRPRPRPHKRPRP"
category = "bucket C"

[[record]]
polymer_sequence = "RRIRWRPPRLPRPRPRPAKDPRP"
category = "bucket B"

[[record]]
polymer_sequence = "RRIRYRPPRLPRPRPRPPTNPRP"
category = "bucket C"

[[record]]
polymer_sequence = "RRIRVRPPRLPRPRPRPVGTPRP"
category = "bucket B"

[[record]]
polymer_sequence = "RRIRNRPPRLPRPRPRPMKHPRP"
category = "bucket A"

[[record]]
polymer_sequence = "RRIRYRPPRLPRPRPRPMKFPRP"
category = "bucket B"

[[record]]
polymer_sequence = "RRIRIRPPRLPRPRPRPGFFPRP"
category = "bucket B"

[[record]]
polymer_sequence = "RRIRPRPPRLPRPRPRPEFMPRP"
category = "bucket C"


Which band does `RRIRERPPRLPRPRPRPNFGPRP` fall in? bucket C

Which band does `RRIRCRPPRLPRPRPRPHTFPRP` fall in? bucket A

Which band does `RRIRTRPPRLPRPRPRPSANPRP` fall in? bucket A

Which band does `RRIRQRPPRLPRPRPRPWACPRP` fall in? bucket A

Which band does `RRIRRRPPRLPRPRPRPMKVPRP` fall in? bucket B

---

system: Escherichia coli TOP10; test: shrunken log2 fold change of peptide-encoding DNA abundance (4.5 h post-induction vs induction); higher = less antimicrobial activity (less host growth inhibition); conditions: time post-induction: 4.5 h; library: site-saturation at positions 5, 18, 19, 20
READOUT NAME: shrunken log2 fold change
API doc: respond with a numeric literal and nothing else, no unit.

Use the examples below as a reference point.
[[record]]
polymer_sequence = "RRIRQRPPRLPRPRPRPRWHPRP"
system = "Escherichia coli TOP10"
readout_name = "shrunken log2 fold change"
reading = 0.197

[[record]]
polymer_sequence = "RRIRMRPPRLPRPRPRPDTYPRP"
system = "Escherichia coli TOP10"
readout_name = "shrunken log2 fold change"
reading = 0.0447

[[record]]
polymer_sequence = "RRIRRRPPRLPRPRPRPNYWPRP"
system = "Escherichia coli TOP10"
readout_name = "shrunken log2 fold change"
reading = -0.19

[[record]]
polymer_sequence = "RRIRERPPRLPRPRPRPYQVPRP"
system = "Escherichia coli TOP10"
readout_name = "shrunken log2 fold change"
reading = -0.109

[[record]]
polymer_sequence = "RRIRPRPPRLPRPRPRPADVPRP"
system = "Escherichia coli TOP10"
readout_name = "shrunken log2 fold change"
reading = 0.0118


Quick one: shrunken log2 fold change for `RRIRTRPPRLPRPRPRPGCHPRP` ? -0.136

Quick one: shrunken log2 fold change for `RRIRLRPPRLPRPRPRPMIIPRP` ? -0.407

Quick one: shrunken log2 fold change for `RRIRKRPPRLPRPRPRPHATPRP` ? 1.06

Quick one: shrunken log2 fold change for `RRIRIRPPRLPRPRPRPLDTPRP` ? -0.142

Quick one: shrunken log2 fold change for `RRIRIRPPRLPRPRPRPSMQPRP` ? -0.221

---

tested on: Escherichia coli TOP10; assay: shrunken log2 fold change of peptide-encoding DNA abundance (4.5 h post-induction vs induction); higher = less antimicrobial activity (less host growth inhibition); details: time post-induction: 4.5 h; library: site-saturation at positions 5, 18, 19, 20
READOUT NAME: shrunken log2 fold change
API doc: respond with a numeric literal and nothing else, no unit.

[[record]]
polymer_sequence = "RRIRRRPPRLPRPRPRPWHEPRP"
readout_name = "shrunken log2 fold change"
reading = 0.041


Then this sequence:
Quick one: shrunken log2 fold change for `RRIRPRPPRLPRPRPRPDSPPRP` ? 0.0152

---

tested on: Escherichia coli TOP10; test: shrunken log2 fold change of peptide-encoding DNA abundance (4.5 h post-induction vs induction); higher = less antimicrobial activity (less host growth inhibition); settings: time post-induction: 4.5 h; library: site-saturation at positions 5, 18, 19, 20
READOUT NAME: shrunken log2 fold change
API doc: respond with a numeric literal and nothing else, no unit.

Quick one: shrunken log2 fold change for `RRIRCRPPRLPRPRPRPCIQPRP` ? 0.0591

Quick one: shrunken log2 fold change for `RRIRSRPPRLPRPRPRPQHYPRP` ? -0.804

Quick one: shrunken log2 fold change for `RRIRARPPRLPRPRPRPYGLPRP` ? 0.0316

Quick one: shrunken log2 fold change for `RRIRFRPPRLPRPRPRPLFGPRP` ? 0.0395

Quick one: shrunken log2 fold change for `RRIRRRPPRLPRPRPRPNSCPRP` ? -0.0116

---

system: Escherichia coli TOP10; test: shrunken log2 fold change of peptide-encoding DNA abundance (4.5 h post-induction vs induction); higher = less antimicrobial activity (less host growth inhibition); conditions: time post-induction: 4.5 h; library: site-saturation at positions 5, 18, 19, 20;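 also: peptides expressed intracellularly from a pBAD plasmid library in pooled LB shake-flask culture, induced with 0.3% L-arabinose, DNA abundance read by NGS, three biological replicates, DESeq2 with apeglm shrinkage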
READOUT NAME: shrunken log2 fold change
API doc: respond with a numeric literal and nothing else, no unit.

[[record]]
polymer_sequence = "RRIRTRPPRLPRPRPRPNNHPRP"
reading = -0.345

[[record]]
polymer_sequence = "RRIRARPPRLPRPRPRPDKTPRP"
reading = -0.00345

[[record]]
polymer_sequence = "RRIRARPPRLPRPRPRPIMHPRP"
reading = -0.171


Quick one: shrunken log2 fold change for `RRIRPRPPRLPRPRPRPIMWPRP` ? 0.253

Quick one: shrunken log2 fold change for `RRIRERPPRLPRPRPRPWEKPRP` ? -0.00277
